These measurements were taken from ChEMBL document CHEMBL5338820.

Target: CCN2-EGFR (Homo sapiens) (UniProt P00533+P29279)
Sequence (P00533 whole entry, looked up, the tested form may be a part): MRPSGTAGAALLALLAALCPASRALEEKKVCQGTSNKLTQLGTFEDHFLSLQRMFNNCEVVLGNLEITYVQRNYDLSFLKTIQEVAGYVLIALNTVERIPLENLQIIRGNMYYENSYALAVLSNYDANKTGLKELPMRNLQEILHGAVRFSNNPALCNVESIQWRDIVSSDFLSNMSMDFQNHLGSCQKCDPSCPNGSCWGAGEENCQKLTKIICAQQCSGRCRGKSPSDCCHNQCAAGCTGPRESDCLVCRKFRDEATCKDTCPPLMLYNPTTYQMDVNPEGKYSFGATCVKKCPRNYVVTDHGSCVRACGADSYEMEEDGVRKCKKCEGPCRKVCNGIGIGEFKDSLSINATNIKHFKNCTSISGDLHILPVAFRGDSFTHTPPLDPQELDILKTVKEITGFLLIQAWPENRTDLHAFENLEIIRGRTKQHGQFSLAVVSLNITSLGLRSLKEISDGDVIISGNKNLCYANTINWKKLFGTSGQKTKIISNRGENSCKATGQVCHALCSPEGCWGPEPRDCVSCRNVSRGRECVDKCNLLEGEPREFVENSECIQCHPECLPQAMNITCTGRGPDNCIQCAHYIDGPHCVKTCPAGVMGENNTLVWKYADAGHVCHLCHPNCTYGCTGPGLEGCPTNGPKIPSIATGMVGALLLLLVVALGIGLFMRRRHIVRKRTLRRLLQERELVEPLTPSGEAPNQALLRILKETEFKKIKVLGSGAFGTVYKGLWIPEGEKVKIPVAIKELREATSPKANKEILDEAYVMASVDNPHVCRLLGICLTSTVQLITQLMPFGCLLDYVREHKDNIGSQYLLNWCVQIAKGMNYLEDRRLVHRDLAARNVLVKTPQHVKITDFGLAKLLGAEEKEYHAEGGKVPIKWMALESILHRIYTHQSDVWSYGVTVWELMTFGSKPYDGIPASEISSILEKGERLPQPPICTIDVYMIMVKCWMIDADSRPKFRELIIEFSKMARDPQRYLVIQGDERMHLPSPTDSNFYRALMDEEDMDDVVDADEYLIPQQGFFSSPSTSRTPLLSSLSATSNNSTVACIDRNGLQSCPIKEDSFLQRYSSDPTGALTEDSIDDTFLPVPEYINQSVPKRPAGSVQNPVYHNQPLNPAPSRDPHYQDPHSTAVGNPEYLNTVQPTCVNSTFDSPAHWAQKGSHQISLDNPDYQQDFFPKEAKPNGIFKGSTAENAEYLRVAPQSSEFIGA
Sequence (P29279 whole entry, looked up, the tested form may be a part): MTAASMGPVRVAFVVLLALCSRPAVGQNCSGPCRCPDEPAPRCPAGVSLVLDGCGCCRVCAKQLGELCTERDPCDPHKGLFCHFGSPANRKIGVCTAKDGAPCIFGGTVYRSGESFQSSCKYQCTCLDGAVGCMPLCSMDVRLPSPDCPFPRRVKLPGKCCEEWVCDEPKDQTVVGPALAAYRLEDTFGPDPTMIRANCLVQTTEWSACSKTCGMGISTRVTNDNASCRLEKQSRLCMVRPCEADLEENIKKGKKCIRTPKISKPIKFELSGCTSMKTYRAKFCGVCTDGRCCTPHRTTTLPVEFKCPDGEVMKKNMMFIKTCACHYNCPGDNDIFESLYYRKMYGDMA
Assay: Inhibition of His-tagged full length human CCN2 FL domain/human Fc-tagged EGFR protein-protein interaction using TMB as chromogenic substrate at 100 uM incubated for 140 mins by microplate reader assay relative to control
Peptide text beside a SMILES is read from it.
Each entry gets False if its inhibition stays under 60%, and True if its inhibition is 60% or above.

Completed entries (count: 10):
INSERT INTO measurements (compound, qualitative_label) VALUES
  ('C[C@@H](O)[C@H](NC(=O)[C@H](Cc1c[nH]c2ccccc12)NC(=O)[C@@H]1CCCN1C(=O)[C@H](CCCNC(=N)N)NC(=O)[C@@H](N)Cc1c[nH]cn1)C(N)=O (H-HRPWT-NH2)', 'False'),
  ('C[C@@H](O)[C@H](N)C(=O)N[C@@H](Cc1c[nH]cn1)C(=O)N[C@@H](CCC(=O)O)C(=O)N[C@@H](CCCNC(=N)N)C(=O)N1CCC[C@H]1C(=O)N[C@@H](Cc1c[nH]c2ccccc12)C(=O)N[C@H](C(N)=O)[C@@H](C)O (H-THERPWT-NH2)', 'False'),
  ('CC(C)C[C@H](N)C(=O)N[C@@H](C)C(=O)N[C@@H](CC(=O)O)C(=O)N[C@H](C(=O)N[C@H](C(=O)N[C@@H](Cc1c[nH]cn1)C(=O)N[C@@H](Cc1c[nH]cn1)C(=O)N[C@@H](CCCNC(=N)N)C(=O)N1CCC[C@H]1C(=O)N[C@@H](Cc1c[nH]c2ccccc12)C(=O)N[C@H](C(N)=O)[C@@H](C)O)[C@@H](C)O)[C@@H](C)O (H-LADTTHHRPWT-NH2)', 'True'),
  ('C[C@@H](O)[C@H](N)C(=O)N[C@@H](Cc1c[nH]cn1)C(=O)N[C@@H](Cc1c[nH]cn1)C(=O)N[C@@H](CCCNC(=N)N)C(=O)N[C@@H](CCC(N)=O)C(=O)N[C@@H](Cc1c[nH]c2ccccc12)C(=O)N[C@H](C(N)=O)[C@@H](C)O (H-THHRQWT-NH2)', 'False'),
  ('C[C@@H](O)[C@H](N)C(=O)N[C@H](C(=O)N[C@@H](Cc1c[nH]cn1)C(=O)N[C@@H](Cc1c[nH]cn1)C(=O)N[C@@H](CCCNC(=N)N)C(=O)N1CCC[C@H]1C(=O)N[C@@H](Cc1c[nH]c2ccccc12)C(=O)N[C@H](C(N)=O)[C@@H](C)O)[C@@H](C)O (H-TTHHRPWT-NH2)', 'True'),
  ('C[C@@H](O)[C@H](NC(=O)[C@H](Cc1c[nH]c2ccccc12)NC(=O)[C@@H]1CCCN1C(=O)[C@H](CCCNC(=N)N)NC(=O)[C@H](Cc1c[nH]cn1)NC(=O)[C@H](Cc1c[nH]cn1)NC(=O)[C@@H](NC(=O)[C@@H](NC(=O)[C@@H](N)CC(=O)O)[C@@H](C)O)[C@@H](C)O)C(N)=O (H-DTTHHRPWT-NH2)', 'True'),
  ('CC(C)C[C@H](NC(=O)[C@@H](N)CC(C)C)C(=O)N[C@@H](C)C(=O)N[C@@H](CC(=O)O)C(=O)N[C@H](C(=O)N[C@H](C(=O)N[C@@H](Cc1c[nH]cn1)C(=O)N[C@@H](Cc1c[nH]cn1)C(=O)N[C@@H](CCCNC(=N)N)C(=O)N1CCC[C@H]1C(=O)N[C@@H](C)C(=O)N[C@H](C(N)=O)[C@@H](C)O)[C@@H](C)O)[C@@H](C)O (H-LLADTTHHRPAT-NH2)', 'False'),
  ('C[C@@H](O)[C@@H]1NC(=O)[C@H](Cc2c[nH]c3ccccc23)NC(=O)[C@@H]2CCCN2C(=O)[C@H](CCCNC(=N)N)NC(=O)[C@H](Cc2c[nH]cn2)NC(=O)[C@H](CCCCN)NC(=O)[C@H]([C@@H](C)O)NC1=O (cyclo(HRPWTTK))', 'True'),
  ('C[C@@H](O)[C@H](N)C(=O)N[C@@H](CCCCN)C(=O)N[C@@H](Cc1c[nH]cn1)C(=O)N[C@@H](CCCNC(=N)N)C(=O)N1CCC[C@H]1C(=O)N[C@@H](Cc1c[nH]c2ccccc12)C(=O)N[C@H](C(N)=O)[C@@H](C)O (H-TKHRPWT-NH2)', 'True'),
  ('C[C@@H](O)[C@H](N)C(=O)N[C@@H](CCC(N)=O)C(=O)N[C@@H](Cc1c[nH]cn1)C(=O)N[C@@H](CCCNC(=N)N)C(=O)N1CCC[C@H]1C(=O)N[C@@H](Cc1c[nH]c2ccccc12)C(=O)N[C@H](C(N)=O)[C@@H](C)O (H-TQHRPWT-NH2)', 'False');

q: Threshold query (inhibition >= 60%) on CC(C)C[C@H](NC(=O)[C@@H](N)CC(C)C)C(=O)N[C@@H](C)C(=O)N[C@@H](CC(=O)O)C(=O)N[C@H](C(=O)N[C@H](C(=O)N[C@@H](Cc1c[nH]cn1)C(=O)N[C@@H](Cc1c[nH]cn1)C(=O)N[C@@H](CCCNC(=N)N)C(=O)N[C@@H](C)C(=O)N[C@@H](Cc1c[nH]c2ccccc12)C(=O)N[C@H](C(N)=O)[C@@H](C)O)[C@@H](C)O)[C@@H](C)O (H-LLADTTHHRAWT-NH2)
a: False

q: Threshold query (inhibition >= 60%) on C[C@@H](O)[C@H](N)C(=O)N[C@@H](Cc1c[nH]cn1)C(=O)N[C@@H](Cc1c[nH]cn1)C(=O)N[C@@H](CCCNC(=N)N)C(=O)N1CCC[C@H]1C(=O)N[C@@H](Cc1c[nH]c2ccccc12)C(=O)N[C@H](C(N)=O)[C@@H](C)O (H-THHRPWT-NH2)
a: True
